- SYSTEM: human FXR (cotransfected with RXR) (Homo sapiens, UniProt Q96RI1)
- Sequence (Q96RI1 whole entry): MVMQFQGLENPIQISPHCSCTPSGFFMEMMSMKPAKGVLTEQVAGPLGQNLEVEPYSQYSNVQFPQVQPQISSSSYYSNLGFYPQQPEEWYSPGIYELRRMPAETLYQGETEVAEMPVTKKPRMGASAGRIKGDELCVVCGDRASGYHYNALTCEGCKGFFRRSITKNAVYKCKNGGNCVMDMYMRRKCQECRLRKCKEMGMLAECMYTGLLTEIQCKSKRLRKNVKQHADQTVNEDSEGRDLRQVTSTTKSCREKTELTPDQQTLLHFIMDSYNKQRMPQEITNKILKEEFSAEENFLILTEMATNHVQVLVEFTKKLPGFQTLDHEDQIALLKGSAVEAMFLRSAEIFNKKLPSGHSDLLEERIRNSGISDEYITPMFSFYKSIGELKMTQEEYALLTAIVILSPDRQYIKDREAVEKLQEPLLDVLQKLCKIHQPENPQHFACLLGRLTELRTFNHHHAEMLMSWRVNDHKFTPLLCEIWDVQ
- Sequence (P19793 whole entry partner): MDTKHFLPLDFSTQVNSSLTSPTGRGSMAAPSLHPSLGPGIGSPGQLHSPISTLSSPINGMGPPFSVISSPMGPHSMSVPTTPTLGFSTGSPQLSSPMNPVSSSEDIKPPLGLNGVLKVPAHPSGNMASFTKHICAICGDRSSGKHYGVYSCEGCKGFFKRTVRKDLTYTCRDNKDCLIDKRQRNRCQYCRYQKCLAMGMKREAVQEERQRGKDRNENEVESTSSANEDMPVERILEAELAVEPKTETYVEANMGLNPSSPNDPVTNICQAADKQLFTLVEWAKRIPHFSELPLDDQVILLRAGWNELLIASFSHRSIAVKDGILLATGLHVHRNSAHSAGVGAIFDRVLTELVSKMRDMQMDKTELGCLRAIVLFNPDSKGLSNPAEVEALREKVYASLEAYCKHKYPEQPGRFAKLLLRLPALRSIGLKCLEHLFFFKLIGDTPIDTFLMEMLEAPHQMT
- PROTOCOL: FXRE-luciferase reporter in HEK293
REPORTED METRIC: pIC50
Please keep in mind that pIC50 is minus log10 of the molar concentration; only the number is needed.

Supply recorded pIC50 for `C[C@H](CCC(=O)O)[C@H]1CC[C@H]2[C@@H]3C(=O)C[C@@H]4C[C@H](O)CC[C@]4(C)[C@H]3C[C@H](O)[C@]12C` here.
4.86
